Tested on: IFNγ-induced NO production in RAW 264.7 cells
Assay: Nitric oxide suppression assay (IFNγ-induced NO production, Griess nitrite readout)
Type: cell-based, mouse
Marks after values point to notes of the source that are not given here.
outcomeMeasure: NO IC50 Rel. to RTA 402

Sample answers from the record:
compound=C[C@@H]1C(=O)C(C#N)=C[C@]2(C)C3=CC(=O)[C@@H]4[C@@H]5CC(C)(C)CC[C@]5(CN5CCCC5=O)CC[C@@]4(C)[C@]3(C)CC[C@@H]12 result="0.39 ± 0.09^e fold"
compound=CC1(C)CC[C@]2(n3ccnc3)CC[C@]3(C)[C@H](C(=O)C=C4[C@@]5(C)C=C(C#N)C(=O)C(C)(C)[C@@H]5CC[C@]43C)[C@@H]2C1 result="1.37 ± 0.26^e fold"
compound=CN(C[C@]12CCC(C)(C)C[C@H]1[C@H]1C(=O)C=C3[C@@]4(C)C=C(C#N)C(=O)C(C)(C)[C@@H]4CC[C@@]3(C)[C@]1(C)CC2)C(=O)OC(C)(C)C result="6.04 ± 2.02^d fold"

Item under review: `CNC(=O)c1cn([C@]23CCC(C)(C)C[C@H]2[C@H]2C(=O)C=C4[C@@]5(C)C=C(C#N)C(=O)C(C)(C)[C@@H]5CC[C@@]4(C)[C@]2(C)CC3)nn1` . Reported NO IC50 Rel. to RTA 402?
1.19 ± 0.22^d fold

Also `CC1(C)CC[C@]2(N3CCC3=O)CC[C@]3(C)[C@H](C(=O)C=C4[C@@]5(C)C=C(C#N)C(=O)C(C)(C)[C@@H]5CC[C@]43C)[C@@H]2C1` ?
1.69 ± 0.84^e fold

Also `CC1(C)CC[C@]2(CN3CCCC3=O)CC[C@]3(C)[C@H](C(=O)C=C4[C@@]5(C)C=C(C#N)C(=O)C(C)(C)[C@@H]5CC[C@]43C)[C@@H]2C1` ?
0.58 ± 0.18^f fold

Also CC1(C)CC[C@]2(NC(=O)C3CC3)CC[C@]3(C)[C@H](C(=O)C=C4[C@@]5(C)C=C(C#N)C(=O)C(C)(C)[C@@H]5CC[C@]43C)[C@@H]2C1 [Compound T68] ?
6.51 ± 1.38^i fold

Also `CC1(C)CC[C@]2(CN3CC(=O)C3)CC[C@]3(C)[C@H](C(=O)C=C4[C@@]5(C)C=C(C#N)C(=O)C(C)(C)[C@@H]5CC[C@]43C)[C@@H]2C1` ?
1.49 ± 0.30^d fold

Also `CC1(C)CC[C@]2(CNC(=O)C(F)F)CC[C@]3(C)[C@H](C(=O)C=C4[C@@]5(C)C=C(C#N)C(=O)C(C)(C)[C@@H]5CC[C@]43C)[C@@H]2C1` ?
0.36 ± 0.11^d fold

Also `CC1(C)CC[C@]2(n3cnnc3)CC[C@]3(C)[C@H](C(=O)C=C4[C@@]5(C)C=C(C#N)C(=O)C(C)(C)[C@@H]5CC[C@]43C)[C@@H]2C1` ?
42.82 ± 14.24^e fold

Also `CC1(C)CC[C@]2(CN3CC4(COC4)C3)CC[C@]3(C)[C@H](C(=O)C=C4[C@@]5(C)C=C(C#N)C(=O)C(C)(C)[C@@H]5CC[C@]43C)[C@@H]2C1` ?
2.01 ± 0.53^e fold

Also `CNC(=O)N(C)C[C@]12CCC(C)(C)C[C@H]1[C@H]1C(=O)C=C3[C@@]4(C)C=C(C#N)C(=O)C(C)(C)[C@@H]4CC[C@@]3(C)[C@]1(C)CC2` ?
0.38 ± 0.15^e fold

Also `CC1(C)CC[C@]2(N(NC(=O)OC(C)(C)C)C(=O)OC(C)(C)C)CC[C@]3(C)[C@H](C(=O)C=C4[C@@]5(C)C=C(C#N)C(=O)C(C)(C)[C@@H]5CC[C@]43C)[C@@H]2C1` ?
17.42 ± 0.43^e fold

Also `CC1(C)CC[C@]2(n3cc(CO)nn3)CC[C@]3(C)[C@H](C(=O)C=C4[C@@]5(C)C=C(C#N)C(=O)C(C)(C)[C@@H]5CC[C@]43C)[C@@H]2C1` ?
2.97 ± 0.47^d fold

Also CC1(C)CC[C@]2(CNC(=O)OC(C)(C)C)CC[C@]3(C)[C@H](C(=O)C=C4[C@@]5(C)C=C(C#N)C(=O)C(C)(C)[C@@H]5CC[C@]43C)[C@@H]2C1 [CC1, reference compound] ?
2.06 ± 0.56^e fold

Also C[C@@H]1C(=O)C(C#N)=C[C@]2(C)C3=CC(=O)[C@@H]4[C@@H]5CC(C)(C)CC[C@]5(NC(=O)C5CC5)CC[C@@]4(C)[C@]3(C)CC[C@@H]12 [Compound 63866, reference compound] ?
1.16 fold

Also `CC1(C)CC[C@]2(N3CCCC3=O)CC[C@]3(C)[C@H](C(=O)C=C4[C@@]5(C)C=C(C#N)C(=O)C(C)(C)[C@@H]5CC[C@]43C)[C@@H]2C1` ?
2.17 ± 0.72^e fold

Also `CC1(C)CC[C@]2(n3ccc(C(F)(F)F)n3)CC[C@]3(C)[C@H](C(=O)C=C4[C@@]5(C)C=C(C#N)C(=O)C(C)(C)[C@@H]5CC[C@]43C)[C@@H]2C1` ?
11.32 ± 1.49^e fold

Also `CC1(C)CC[C@]2(CNC(=O)CF)CC[C@]3(C)[C@H](C(=O)C=C4[C@@]5(C)C=C(C#N)C(=O)C(C)(C)[C@@H]5CC[C@]43C)[C@@H]2C1` ?
0.38 ± 0.15^d fold

Also `CC1(C)CC[C@]2(Cn3cncn3)CC[C@]3(C)[C@H](C(=O)C=C4[C@@]5(C)C=C(C#N)C(=O)C(C)(C)[C@@H]5CC[C@]43C)[C@@H]2C1` ?
0.57 ± 0.07^e fold

----------
Test system: IFNγ-induced NO production in RAW 264.7 cells
Assay: Nitric oxide suppression assay (IFNγ-induced NO production, Griess nitrite readout)
Assay type: cell-based, mouse
Marks after values point to notes of the source that are not given here.
NO IC50 Rel. to RTA 402 reference

Sample answers from the record:
compound=CC1(C)CC[C@]2(n3cc(C(F)F)nn3)CC[C@]3(C)[C@H](C(=O)C=C4[C@@]5(C)C=C(C#N)C(=O)C(C)(C)[C@@H]5CC[C@]43C)[C@@H]2C1 result="1.07 ± 0.11^d fold"
compound=C[C@@H]1C(=O)C(C#N)=C[C@]2(C)C3=CC(=O)[C@@H]4[C@@H]5CC(C)(C)CC[C@]5(CN5CCC5=O)CC[C@@]4(C)[C@]3(C)CC[C@@H]12 result="0.36 ± 0.12^e fold"
compound="CC1(C)CC[C@]2(NC(=O)C3CC3)CC[C@]3(C)[C@H](C(=O)C=C4[C@@]5(C)C=C(C#N)C(=O)C(C)(C)[C@@H]5CC[C@]43C)[C@@H]2C1 [Compound 63236, reference compound]" result="57.25 fold"
compound=CN1CC(=O)N([C@]23CCC(C)(C)C[C@H]2[C@H]2C(=O)C=C4[C@@]5(C)C=C(C#N)C(=O)C(C)(C)[C@@H]5CC[C@@]4(C)[C@]2(C)CC3)CC1=O result="16.18 ± 3.50^e fold"

Item under review: CC1(C)CC[C@]2(c3nn[nH]n3)CC[C@]3(C)[C@H](C(=O)C=C4[C@@]5(C)C=C(C#N)C(=O)C(C)(C)[C@@H]5CC[C@]43C)[C@@H]2C1 [Compound 63229, reference compound] . Reported NO IC50 Rel. to RTA 402?
>75.85 fold

----------
NO IC50 Rel. to RTA 402 reference
Tested on: IFNγ-induced NO production in RAW 264.7 cells
Experiment: Nitric oxide suppression assay (IFNγ-induced NO production, Griess nitrite readout)
Assay type: cell-based, mouse
Marks after values point to notes of the source that are not given here.

Sample answers from the record:
compound="CC1(C)CC[C@]2(CNC(=O)C(C)(F)F)CC[C@]3(C)[C@H](C(=O)C=C4[C@@]5(C)C=C(C#N)C(=O)C(C)(C)[C@@H]5CC[C@]43C)[C@@H]2C1 [Compound T62]" outcomemeasure="NO IC50 Rel. to RTA 402" result="0.51 ± 0.18^d fold"
compound="CC1(C)CC[C@]2(CN3NCCC3=O)CC[C@]3(C)[C@H](C(=O)C=C4[C@@]5(C)C=C(C#N)C(=O)C(C)(C)[C@@H]5CC[C@]43C)[C@@H]2C1 [Compound T51]" outcomemeasure="NO IC50 Rel. to RTA 402" result="2.04 ± 0.73^d fold"
compound="C=CC(=O)N[C@]12CCC(C)(C)C[C@H]1[C@H]1C(=O)C=C3[C@@]4(C)C=C(C#N)C(=O)C(C)(C)[C@@H]4CC[C@@]3(C)[C@]1(C)CC2 [Compound 63183, reference compound]" outcomemeasure="NO IC50 Rel. to RTA 402" result="1.35 fold"
compound="CC1(C)CC[C@]2(CNCCO)CC[C@]3(C)[C@H](C(=O)C=C4[C@@]5(C)C=C(C#N)C(=O)C(C)(C)[C@@H]5CC[C@]43C)[C@@H]2C1 [Compound T12]" outcomemeasure="NO IC50 Rel. to RTA 402" result="4.07 ± 1.08^e fold"

# context switch: different compound, same NO IC50 Rel. to RTA 402
Reported NO IC50 Rel. to RTA 402 for IFNγ-induced NO production in RAW 264.7 cells, given CC1(C)CC[C@]2(Cn3cccn3)CC[C@]3(C)[C@H](C(=O)C=C4[C@@]5(C)C=C(C#N)C(=O)C(C)(C)[C@@H]5CC[C@]43C)[C@@H]2C1 [Compound T20] ?
1.93 ± 0.41^e fold

Where these numbers come from: patent US20230111914A1
